From: patent US20250011363A1

target: acetylcholine receptor; experiment: SPR, AchR immobilised on CM5 chip, peptide 10 uM
experimental_endpoint: Binding affinity (RU)

RANFRR [6mer-2-747]
29
KFDVRK [6mer-2-649]
31
KAANRR [6mer-2-613]
18
RRPWNR [6mer-1-933]
28
KKDHKK [6mer-1-1049]
31
RKNPKR [6mer-2-610]
32
RKYTPK [6mer-1-1053]
27
KMKERR [6mer-2-763]
19
KYTMKK [6mer-2-724]
24
